Target or test system: HLA-B*44:02
Experiment description: IEDB peptide-MHC binding, purified MHC/direct/fluorescence; filed as Kd, often an IC50 or EC50 that approximates it; bounds were set here for any values at or beyond the usual limits of such assays
Experimental context: source organism: Vibrio vulnificus
Quantity: Kd

Query string: Quote Kd reported for `IQTHCEVGY` please.
Result string: ≥ 20 µM

###

Target or test system: HLA-B*58:01
Experiment description: IEDB peptide-MHC binding, purified MHC/competitive/fluorescence; filed as Kd, often an IC50 or EC50 that approximates it; bounds were set here for any values at or beyond the usual limits of such assays
Experimental context: source organism: Influenza A virus (A/X-31(H3N2))
Quantity: Kd (µM)
Answer format: numeric, µM implied, no suffix.

Query string: Recall the reported Kd of `VSSFQDILL` on HLA-B*58:01 and write it down.
Result string: 0.687

###

Target or test system: HLA-A*03:01
Experiment description: IEDB peptide-MHC binding, purified MHC/competitive/fluorescence; filed as Kd, often an IC50 or EC50 that approximates it; bounds were set here for any values at or beyond the usual limits of such assays
Experimental context: source organism: Escherichia coli B171
Quantity: Kd

Query string: For the sequence `VSALRLFNY` , give its reported Kd.
Result string: ≥ 20 µM

###

Target or test system: HLA-A*30:02
Experiment description: IEDB peptide-MHC binding, purified MHC/competitive/radioactivity; filed as Kd, often an IC50 or EC50 that approximates it; bounds were set here for any values at or beyond the usual limits of such assays
Experimental context: source organism: Influenza A virus (A/Wilson-Smith/1933(H1N1))
Quantity: Kd

Query string: For the sequence `DQHGRMNYYW` , give its measured Kd value.
Result string: ≥ 69.8 µM

###

Target or test system: HLA-B*45:06
Experiment description: IEDB peptide-MHC binding, purified MHC/competitive/fluorescence; filed as Kd, often an IC50 or EC50 that approximates it; bounds were set here for any values at or beyond the usual limits of such assays
Experimental context: source organism: Vibrio cholerae RC385
Quantity: Kd

Query string: Tell me measured Kd for `MMYTVSLGK` please.
Result string: ≥ 5 µM

###

Target or test system: HLA-B*39:01
Experiment description: IEDB peptide-MHC binding, purified MHC/competitive/fluorescence; filed as Kd, often an IC50 or EC50 that approximates it; bounds were set here for any values at or beyond the usual limits of such assays
Experimental context: source organism: Influenza A virus (A/Gf/HK/SSP607/2003(H9N2))
Quantity: Kd

Query string: Return the recorded Kd value; entry: `AMITYITRK`
Result string: ≥ 20 µM

###

Target or test system: HLA-A*68:02
Experiment description: IEDB peptide-MHC binding, purified MHC/direct/fluorescence; filed as Kd, often an IC50 or EC50 that approximates it; bounds were set here for any values at or beyond the usual limits of such assays
Experimental context: source organism: Orthohantavirus andesense
pKd: −log10 of the molar value.
Some sequences, each annotated with its measured pKd.

Record sequence | pKd
NALEKALRW | ≤ 4.70

Query string: Please supply the value of reported pKd for the item `VSANVKGNW`
Result string: ≤ 4.70

###

Target or test system: HLA-A*32:01
Experiment description: IEDB peptide-MHC binding, purified MHC/competitive/radioactivity; filed as Kd, often an IC50 or EC50 that approximates it; bounds were set here for any values at or beyond the usual limits of such assays
Experimental context: source organism: Dengue virus 2 Jamaica/1409/1983
Quantity: pKd
Scale explanation: pKd corresponds to minus log10 of a concentration expressed in moles per litre.

Query string: Using the record for `ETRTETWMSS` , state its measured pKd.
Result string: 4.89
